- targetSystem: T1, His-LXRβ/FLAG-RXRα heterodimer (ligand binding domains of human LXRβ and human RXRα) (human) (UniProt P55055)
- T1 sequence 1: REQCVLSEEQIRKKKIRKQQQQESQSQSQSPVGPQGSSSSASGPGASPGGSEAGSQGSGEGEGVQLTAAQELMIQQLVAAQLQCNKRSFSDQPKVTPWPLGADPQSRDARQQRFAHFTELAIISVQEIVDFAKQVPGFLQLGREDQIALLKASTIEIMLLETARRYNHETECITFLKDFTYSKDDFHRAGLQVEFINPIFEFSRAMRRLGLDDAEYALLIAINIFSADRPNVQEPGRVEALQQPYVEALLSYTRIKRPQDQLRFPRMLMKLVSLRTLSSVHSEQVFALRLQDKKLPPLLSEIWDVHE
- T1 sequence 2: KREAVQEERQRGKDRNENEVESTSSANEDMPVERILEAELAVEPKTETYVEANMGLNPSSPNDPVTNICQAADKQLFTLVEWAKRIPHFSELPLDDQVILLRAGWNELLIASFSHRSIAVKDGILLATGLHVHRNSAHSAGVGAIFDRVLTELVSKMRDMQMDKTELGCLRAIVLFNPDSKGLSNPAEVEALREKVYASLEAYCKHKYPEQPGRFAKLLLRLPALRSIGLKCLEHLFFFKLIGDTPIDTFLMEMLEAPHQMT
- protocol: FRET (665/620 nm), anti-His tag antibody + streptavidin, biotinylated peptide; with Compound A, relative to DMSO-only control
No end group written: not given here. *: point of attachment. Biotin = O=C1N[C@H]2[C@H](CS[C@H]2CCCCC(=O)*)N1
# % of control listing for each entry below

INPUT: Please give measured % of control of the following entry: Biotin-SPKKKENNALLRYLLDRDDPSDALSK [ACTR NRB3 peptide … (aa 728-753)]
OUTPUT: 129 % of control

INPUT: Please give measured % of control of the following entry: Biotin-KQEPVSPKKKENALLRYLLDKDDTK [TIF2 NRB2 peptide … (aa 731-755)]
OUTPUT: 125 % of control

INPUT: Please give measured % of control of the following entry: Biotin-HGTSLKEKHKILHRLLQDSSSPVDL [TIF2 peptide … (aa 679-703)]
OUTPUT: 108 % of control

INPUT: Please give measured % of control of the following entry: Biotin-CCFCGEDHPRQGSILYSLLTSSKQT (cysteine pairing not given here) [DAX1 peptide … (aa 132-156)]
OUTPUT: 116 % of control

INPUT: Please give measured % of control of the following entry: Biotin-NKDVTLTSPLLVNLLQSDISAGHFGVNNKQ [ASC-2 NR-1 peptide … (LXXLL motif on the N-terminal side of ASC-2)]
OUTPUT: 114 % of control
